Reference source for all entries: patent US10597388B2

- System: corn (Zea mays)
- assay_notes: Test C greenhouse herbicide test, pre- and postemergence
- Format: in vivo
- recorded_conditions: Postemergence, 125 g ai/ha; scale 0 to 100, 0 is no effect, 100 is complete control
measurement_label: Plant response rating, Corn

compound="CC(=O)Oc1c(C)nn(C)c(=O)c1-c1c(C)oc2ccc(C)cc12 [Compound 14]" measurement_label="Plant response rating, Corn" data_value=0
compound="Cc1nn(C)c(=O)c(-c2c(C)sc3ccc(Cl)cc23)c1O [Compound 104]" measurement_label="Plant response rating, Corn" data_value=50
compound="CC(=O)Oc1c(C)nn(C)c(=O)c1-c1ccc(F)c2ccccc12 [Compound 90]" measurement_label="Plant response rating, Corn" data_value=10
compound="Cc1ccc2ccccc2c1-c1c(O)c(C)nn(C)c1=O [Compound 59]" measurement_label="Plant response rating, Corn" data_value=65
compound="COC(=O)Oc1c(C)nn(C)c(=O)c1-c1c(C)sc2c(C)cc(C)cc12 [Compound 81]" measurement_label="Plant response rating, Corn" data_value=10
compound="C#CCOC(=O)Oc1c(C)nn(C)c(=O)c1-c1c(C)sc2ccc(C)cc12 [Compound 87]" measurement_label="Plant response rating, Corn" data_value=30
compound="Cc1nn(C)c(=O)c(-c2ccc(F)c3ccccc23)c1OC(=O)CC(F)(F)F [Compound 123]" measurement_label="Plant response rating, Corn" data_value=20

* * *

- Test system: crabgrass, large (large crabgrass, Digitaria sanguinalis)
- assay_notes: Test C greenhouse herbicide test, pre- and postemergence
- Assay type: in vivo
- recorded_conditions: Preemergence, 250 g ai/ha; scale 0 to 100 (0 no effect, 100 complete control)
- Source text: […]
Let's look at some molecules and their measured Crabgrass, Large plant response rating.
measurement_label: Crabgrass, Large plant response rating

item_smiles=Cc1cc(C)c2ccccc2c1-c1c(OS(C)(=O)=O)c(C)nn(C)c1=O measurement_label="Crabgrass, Large plant response rating" data_value=100
item_smiles=Cc1nn(C)c(=O)c(-c2c(C)sc3ccc(Cl)cc23)c1O measurement_label="Crabgrass, Large plant response rating" data_value=60
item_smiles=CCC(=O)Oc1c(C)nn(C)c(=O)c1-c1c(C)sc2ccc(Cl)cc12 measurement_label="Crabgrass, Large plant response rating" data_value=80
item_smiles=CCC(=O)Oc1c(C)nn(C)c(=O)c1-c1ccc(Br)c2ccccc12 measurement_label="Crabgrass, Large plant response rating" data_value=65
item_smiles=CC(=O)Oc1c(C)nn(C)c(=O)c1-c1c(C)sc2c(C)cc(C)cc12 measurement_label="Crabgrass, Large plant response rating" data_value=98
item_smiles=CCC(=O)Oc1c(C)nn(C)c(=O)c1-c1c(C)sc2ccc(C)cc12 measurement_label="Crabgrass, Large plant response rating" data_value=85
item_smiles=COC(=O)Oc1c(Br)nn(C)c(=O)c1-c1c(C)ccc2ccccc12 measurement_label="Crabgrass, Large plant response rating" data_value=80
item_smiles=Cc1ccc2ccccc2c1-c1c(O)c(C)nn(C)c1=O measurement_label="Crabgrass, Large plant response rating" data_value=100
item_smiles=CCCC(=O)Oc1c(C)nn(C)c(=O)c1-c1c(C)sc2c(C)cc(C)cc12 measurement_label="Crabgrass, Large plant response rating" data_value=80

* * *

- System: waterhemp (common waterhemp, Amaranthus rudis)
- assay_notes: Test E greenhouse herbicide test, pre- and postemergence
- Type: in vivo
- recorded_conditions: Preemergence, 250 g ai/ha; visual, scale 0 no effect to 100 complete control
Each entry below lists one item and its recorded Plant response rating, Waterhemp value.
measurement_label: Plant response rating, Waterhemp

item_smiles=CC(=O)Oc1c(C)nn(C)c(=O)c1-c1c(C)sc2ccc(C)cc12 measurement_label="Plant response rating, Waterhemp" data_value=100
item_smiles=CCOC(=O)Oc1c(C)nn(C)c(=O)c1-c1c(C)sc2c(C)cc(C)cc12 measurement_label="Plant response rating, Waterhemp" data_value=75
item_smiles=CC(=O)Oc1c(C)nn(C)c(=O)c1-c1c(C)sc2c(C)cc(C)cc12 measurement_label="Plant response rating, Waterhemp" data_value=95
item_smiles=Cc1cc(C)c2sc(C)c(-c3c(OC(=O)OCCCl)c(C)nn(C)c3=O)c2c1 measurement_label="Plant response rating, Waterhemp" data_value=85
item_smiles=CCOC(=O)Oc1c(C)nn(C)c(=O)c1-c1c(CC)ccc2ccccc12 measurement_label="Plant response rating, Waterhemp" data_value=100

* * *

- Test system: blackgrass (Alopecurus myosuroides)
- assay_notes: Test D controlled growth environment herbicide test, pre- and postemergence
- Format: in vivo
- recorded_conditions: Postemergence, 31 g ai/ha; scale 0 to 100 (0 no effect, 100 complete control)
measurement_label: Blackgrass plant response rating

molecule="CCC(=O)Oc1c(C)nn(C)c(=O)c1-c1c(C)sc2ccc(Cl)cc12 [Compound 109]" study_system="blackgrass (Alopecurus myosuroides)" data_value=20
molecule="CCOC(=O)Oc1c(C)nn(C)c(=O)c1-c1c(C)sc2c(C)cc(C)cc12 [Compound 83]" study_system="blackgrass (Alopecurus myosuroides)" data_value=65
molecule="CC(=O)Oc1c(C)nn(C)c(=O)c1-c1c(C)cc(C)c2ccccc12 [Compound 153]" study_system="blackgrass (Alopecurus myosuroides)" data_value=65
molecule="Cc1ccc2ccccc2c1-c1c(O)c(C)nn(C)c1=O [Compound 59]" study_system="blackgrass (Alopecurus myosuroides)" data_value=70

* * *

Items are presented alongside their recorded Plant response rating, Pigweed, Palmer.
- System: pigweed, palmer (palmer pigweed, Amaranthus palmeri)
- assay_notes: Test E greenhouse herbicide test, pre- and postemergence
- Assay type: in vivo
- recorded_conditions: 125 g ai/ha, Preemergence; scale 0 to 100 (0 no effect, 100 complete control)
measurement_label: Plant response rating, Pigweed, Palmer

item_smiles=Cc1ccc2ccccc2c1-c1c(O)c(C)nn(C)c1=O data_value=100
item_smiles=C#CCOC(=O)Oc1c(C)nn(C)c(=O)c1-c1c(C)sc2ccc(C)cc12 data_value=75
item_smiles=CCC(=O)Oc1c(C)nn(C)c(=O)c1-c1c(C)sc2ccc(Cl)cc12 data_value=85
item_smiles=CCOC(=O)Oc1c(C)nn(C)c(=O)c1-c1c(CC)ccc2ccccc12 data_value=100
item_smiles=CC(=O)Oc1c(C)nn(C)c(=O)c1-c1c(C)sc2ccc(C)cc12 data_value=100
item_smiles=Cc1cc(C)c2sc(C)c(-c3c(OC(=O)OCCCl)c(C)nn(C)c3=O)c2c1 data_value=50

* * *

- Test system: barnyardgrass (Echinochloa crus-galli)
- assay_notes: Test A greenhouse herbicide test, pre- and postemergence
- Format: in vivo
- recorded_conditions: Preemergence, 500 g ai/ha; 0 to 100 scale where 0 is no effect and 100 is complete control
Entries and their measured Plant response rating, Barnyardgrass follow.
measurement_label: Plant response rating, Barnyardgrass

item_smiles=Cc1ccc2ccccc2c1-c1c(OC(=O)N2CCOCC2)c(Br)nn(C)c1=O data_value=10
item_smiles=CC(=O)Oc1c(C)nn(C)c(=O)c1-c1c([N+](=O)[O-])ccc2ccccc12 data_value=20
item_smiles=CCC(=O)Oc1c(C)nn(C)c(=O)c1-c1c(C(F)(F)F)ccc2ccccc12 data_value=60
item_smiles=CC(=O)Oc1c(C)nn(C)c(=O)c1-c1ccc(F)c2ccccc12 data_value=100

* * *

- Tested on: wheat, spring (spring wheat, Triticum aestivum)
- assay_notes: Test D controlled growth environment herbicide test, pre- and postemergence
- Type: in vivo
- recorded_conditions: Preemergence, 125 g ai/ha; scale 0 to 100 (0 no effect, 100 complete control)
measurement_label: Plant response rating, Wheat, Spring

item_smiles=CC(=O)Oc1c(C)nn(C)c(=O)c1-c1ccc(F)c2ccccc12 data_value=60
item_smiles=CC(=O)Oc1c(Br)nn(C)c(=O)c1-c1c(C)ccc2ccccc12 data_value=60
item_smiles=CC(=O)Oc1c(C)nn(C)c(=O)c1-c1c(C)sc2c(C)cc(C)cc12 data_value=5
item_smiles=COc1nn(C)c(=O)c(-c2c(C)ccc3ccccc23)c1OC(=O)OC(C)C data_value=0
item_smiles=Cc1ccc2ccc(C)c(-c3c(O)c(C)nn(C)c3=O)c2c1 data_value=65

* * *

Reported values of Plant response rating, Rice for individual entries
- System: rice (Oryza sativa)
- assay_notes: Test B flooded paddy test
- Assay type: in vivo
- recorded_conditions: 250 g ai/ha, Flood; visual rating on scale of 0 to 100 where 0 is no effect and 100 is complete control; 13 to 15 d after treatment
measurement_label: Plant response rating, Rice

item_smiles=Cc1cc(C)c2c(-c3c(OC(=O)C(C)(C)C)c(C)nn(C)c3=O)c(C)sc2c1 study_system="rice (Oryza sativa)" measurement_label="Plant response rating, Rice" data_value=0
item_smiles=Cc1nn(C)c(=O)c(-c2cc(F)cc3ccccc23)c1OS(C)(=O)=O study_system="rice (Oryza sativa)" measurement_label="Plant response rating, Rice" data_value=0
item_smiles=COC(=O)Oc1c(Br)nn(C)c(=O)c1-c1c(C)ccc2ccccc12 study_system="rice (Oryza sativa)" measurement_label="Plant response rating, Rice" data_value=0
item_smiles=CC(=O)Oc1c(C)nn(C)c(=O)c1-c1c(C)sc2c(C)cc(C)cc12 study_system="rice (Oryza sativa)" measurement_label="Plant response rating, Rice" data_value=40
item_smiles=CCOC(=O)Oc1c(C)nn(C)c(=O)c1-c1c(C)ccc2ccccc12 study_system="rice (Oryza sativa)" measurement_label="Plant response rating, Rice" data_value=0
item_smiles=COc1nn(C)c(=O)c(-c2c(C)ccc3ccccc23)c1O study_system="rice (Oryza sativa)" measurement_label="Plant response rating, Rice" data_value=0
item_smiles=CC(=O)Oc1c(C#N)nn(C)c(=O)c1-c1c(C)ccc2ccccc12 study_system="rice (Oryza sativa)" measurement_label="Plant response rating, Rice" data_value=30
item_smiles=CCOC(=O)Oc1c(C)nn(C)c(=O)c1-c1c(C)sc2ccc(C)cc12 study_system="rice (Oryza sativa)" measurement_label="Plant response rating, Rice" data_value=0
item_smiles=COC(=O)Oc1c(Cl)nn(C)c(=O)c1-c1c(C)sc2ccc(Cl)cc12 study_system="rice (Oryza sativa)" measurement_label="Plant response rating, Rice" data_value=0
